subject_of_test: T1, human FLT3 (human, UniProt P36888 27-541, limits assumed)
T1 construct: Soluble analyte hFLT3 in SPR; also called hFLT3; huFlt3
T1 sequence: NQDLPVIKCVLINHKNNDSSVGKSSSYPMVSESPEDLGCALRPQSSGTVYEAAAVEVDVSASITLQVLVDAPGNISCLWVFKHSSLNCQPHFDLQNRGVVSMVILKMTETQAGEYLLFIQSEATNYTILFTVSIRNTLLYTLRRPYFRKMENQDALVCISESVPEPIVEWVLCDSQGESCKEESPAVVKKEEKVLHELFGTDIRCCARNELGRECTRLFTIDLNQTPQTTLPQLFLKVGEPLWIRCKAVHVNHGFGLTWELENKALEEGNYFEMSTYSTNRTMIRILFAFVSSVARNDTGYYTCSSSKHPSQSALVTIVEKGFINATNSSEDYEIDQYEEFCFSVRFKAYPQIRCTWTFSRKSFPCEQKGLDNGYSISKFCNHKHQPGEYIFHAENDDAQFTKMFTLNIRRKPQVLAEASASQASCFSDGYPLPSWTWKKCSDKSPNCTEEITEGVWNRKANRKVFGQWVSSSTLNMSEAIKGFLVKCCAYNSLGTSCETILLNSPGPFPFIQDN
assay_text: SPR Biacore T200, 37C; scFv format
Record form. Attribute: kon. Fill in for each entry.
Reply with just the number (in M⁻¹ s⁻¹).

Prompt: kon for P1B11 (scFv format) (scFv, not shown: a dimerising Fc or GST; small tags and cut ends) scFv: QVQLVQSGAEVKKPGSSVKVSCKASGGTFRSFDISWVRQAPGQGLEWMGRIIPILGYANYAQKFQGRVTITADESTSTAYMELSSLRSEDTAVYYCASDLGAPWAGYPFDPWGQGTLVTVSSGGGGSGGGGSGGGGSEIVLTQSPGTLSLSPGERATLSCRASQSVSSSELAWYQQKPGQAPRLLIYDASSRATGIPDRFSGSGSGTDFTLTISRLEPEDFAVYYCQQYDSSPLTFGQGTKVEIK ?
Completion: 84700

Prompt: Given P1A5 (scFv format) (scFv) scFv: QVQLVQSGAEVKKPGSSVKVSCKASGGVFSRYALSWVRQAPGQGLEWMGGIIPMLGFANYAQKFQGRVTITADESTSTAYMELSSLRSEDTAVYYCATLDFGALDYWGQGTLVTVSSGGGGSGGGGSGGGGSEIVLTQSPGTLSLSPGERATLSCRASQAVDSSDLAWYQQKPGQAPRLLIYDAYTRPSGIPDRFSGSGSGTDFTLTISRLEPEDFAVYYCQQYGSSPLTFGGGTKLEIK , state its recorded kon.
Completion: 259000

Prompt: I am curious: what kon value has been reported for P1B4 (scFv format) (scFv, not shown: a dimerising Fc or GST; small tags and cut ends) scFv: QVQLVQSGAEVKKPGSSVKVSCKASGGVFSRYALSWVRQAPGQGLEWMGGIIPMLGFANYAQKFQGRVTITADESTSTAYMELSSLRSEDTAVYYCATLDFGALDYWGQGTLVTVSSGGGGSGGGGSGGGGSEIVLTQSPGTLSLSPGERATLSCRASQSVPNEQLAWYQQKPGQAPRLLIYDASSRATGIPDRFSGSGSGTDFTLTISRLEPEDFAVYYCQQYGSPPLTFGQGTKVEIK ?
Completion: 120000
